Test system: SF-539 CNS
RUN_DESCRIPTION: NCI tumour cell line growth inhibition, 48 h
So I've got a bunch of compounds here, and I need their TGI values.
Numbers only, in µM.

Example entries and their recorded answers appear below.
1. Cc1ncc(C(=O)Nc2ccc(CN3CCN(C)CC3)c(C(F)(F)F)c2)cc1C#Cc1cnc(N)cc1C#N = 2.93
2. O=C1C[C@@H]2/C(=C(O)\C=C\c3ccccc3)C(=O)C=C[C@@H]2O1 = 8.35
3. CCCCCCCCCCCCCCCCCCN(C)CC(COP(=O)([O-])OCC[N+](C)(C)C)OC (centres undefined) = 40.3

Consider the additional compound presented here.
Ask | Tell me measured TGI for CCCCCCCCCCCCC(O)[C@H]1CC[C@H](C(O)CCCCCC(=O)CCCCC2CC(C(C)=O)C(=O)O2)O1 (some centres undefined) please.
Reply | 35.6
